Test system: Plasmodium falciparum NF54
protocolDescription: growth inhibition relative to untreated control; higher = more inhibition
testContext: 5 µM; MM + chorismate end-products (CM screening medium); 72 h
Would you kindly list growth inhibition for each of these compounds?

Sample CN1CCN(c2nccc3nc(-c4ccc(F)c(F)c4)[nH]c23)CC1 — what was its growth inhibition? > 100%

Sample CC1=NN(c2nc3ccccc3s2)C(=O)C1Cc1cccc2ccccc12 (centres undefined) — what was its growth inhibition? < 0%

Sample CS(=O)(=O)c1ccccc1C(=O)N(Cc1ccccc1)c1ccccc1 — what was its growth inhibition? < 0%

Sample CC(C)(C)c1ccc(N[C@@H]2CCCC[C@H]2NC(=O)c2ccco2)cc1 — what was its growth inhibition? < 0%
